Give protein stability index for every item shown.
B1: IKZF1 (parent)
chain: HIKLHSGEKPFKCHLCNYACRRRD

# Variants of: B1
# test-summary: protein stability index of a GFP-peptide fusion (GPS, HEK-293T) (PSI 1-6); higher = more stable;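 further: lentivirally expressed fusions sorted by FACS into six bins by GFP to DsRed ratio, PSI derived from sequencing read proportions per bin multiplied by bin number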
# experimental-context: c terminus: a fixed tail appended
Numbers only.

INSERT INTO assay_data (sequence_data, parameter_measured, meas_value) VALUES
  ('HIKLHSGEKPFKCHLCNYACHRRD [R21H]', 'protein stability index', 2.27),
  ('HIKLHSGEKPFKCHLPNYACRRRD [C16P]', 'protein stability index', 2.2),
  ('HIKLHSAEKPFKCHLCNYACRRRD [G7A]', 'protein stability index', 2.2);

Record protein stability index for all entries; do not skip any.
1. HIKLHSGEKPFKCHLCNYACRSRD [R22S]
2. HIKLHSGEKPFKKHLCNYACRRRD [C13K]
3. HIKLHSGEKPFKCYLCNYACRRRD [H14Y]
4. HIKHHSGEKPFKCHLCNYACRRRD [L4H]
5. MIKLHSGEKPFKCHLCNYACRRRD [H1M]
6. HIELHSGEKPFKCHLCNYACRRRD [K3E]

[2.97, 3, 1.45, 4.08, 1.81, 1.8]
